biological target: T1, human PD-L1-his taq protein (human, UniProt Q9NZQ7 19-239, limits assumed); assay: SPR Biacore T200, antibody captured, PD-L1-his injected
T1 construct: also called recombinant PD-L1 protein; recombinant human PD-L1; not shown: his tag
T1 sequence (Q9NZQ7 19-239 limits assumed): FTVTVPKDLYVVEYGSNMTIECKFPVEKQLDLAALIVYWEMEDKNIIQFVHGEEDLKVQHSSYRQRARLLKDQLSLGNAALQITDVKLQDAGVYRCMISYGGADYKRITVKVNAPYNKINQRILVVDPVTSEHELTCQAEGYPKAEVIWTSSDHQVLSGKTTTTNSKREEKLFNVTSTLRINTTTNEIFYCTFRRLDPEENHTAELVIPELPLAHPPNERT
OUTCOME_MEASURE: kon (M⁻¹ s⁻¹)
API: value field is a number in M⁻¹ s⁻¹; no unit string.

Entry Hu1210-8 (antibody, V domains shown, Hu1210 VH.1a x Vk.1a; human gamma 1 / kappa constant domains) VH: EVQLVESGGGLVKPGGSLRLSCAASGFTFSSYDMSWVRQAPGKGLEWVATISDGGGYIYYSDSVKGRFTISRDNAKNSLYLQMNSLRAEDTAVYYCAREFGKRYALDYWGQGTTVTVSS VL: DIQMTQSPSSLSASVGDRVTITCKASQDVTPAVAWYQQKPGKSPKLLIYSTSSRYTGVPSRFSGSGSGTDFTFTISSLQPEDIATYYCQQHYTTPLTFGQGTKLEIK : reported kon = ?
93500

Moving on to Hu1210-17 (antibody, V domains shown, Hu1210 VH.4b x Vk.1; human gamma 1 / kappa constant domains) VH: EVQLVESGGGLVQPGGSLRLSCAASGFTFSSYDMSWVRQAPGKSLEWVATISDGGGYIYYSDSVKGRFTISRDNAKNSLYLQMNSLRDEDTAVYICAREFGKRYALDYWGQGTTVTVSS VL: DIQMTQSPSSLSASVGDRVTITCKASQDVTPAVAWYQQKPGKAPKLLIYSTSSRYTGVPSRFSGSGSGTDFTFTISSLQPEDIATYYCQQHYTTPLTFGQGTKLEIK
110000

Input Hu1210-14 (antibody, V domains shown, Hu1210 VH.3a x Vk.1; human gamma 1 / kappa constant domains) VH: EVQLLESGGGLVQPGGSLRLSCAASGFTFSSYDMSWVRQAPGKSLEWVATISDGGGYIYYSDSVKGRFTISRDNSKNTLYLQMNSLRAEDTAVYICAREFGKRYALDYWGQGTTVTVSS VL: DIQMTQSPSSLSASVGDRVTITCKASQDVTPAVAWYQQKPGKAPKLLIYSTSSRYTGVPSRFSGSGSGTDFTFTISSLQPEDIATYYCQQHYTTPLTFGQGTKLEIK
122000

Also need Hu1210-16 (antibody, V domains shown, Hu1210 VH.4a x Vk.1; human gamma 1 / kappa constant domains) VH: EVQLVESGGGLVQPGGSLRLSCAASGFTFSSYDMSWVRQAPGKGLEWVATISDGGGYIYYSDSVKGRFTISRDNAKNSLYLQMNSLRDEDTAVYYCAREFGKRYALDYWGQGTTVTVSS VL: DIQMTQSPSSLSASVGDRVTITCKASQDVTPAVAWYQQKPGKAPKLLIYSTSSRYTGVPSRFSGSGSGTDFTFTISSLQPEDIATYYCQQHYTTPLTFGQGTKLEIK , thanks.
99800

Next record, please: Hu1210-42 (antibody, V domains shown, Hu1210 VH.4e x Vk.1; human gamma 1 / kappa constant domains) VH: EVQLVESGGGLVQPGGSLRLSCAASGFTFSSYDMSWVRQAPGKSLEWVATISDVGGYIYYSDSVKGRFTISRDNAKNSLYLQMNSLRDEDTAVYICAREFGKRYALDYWGQGTTVTVSS VL: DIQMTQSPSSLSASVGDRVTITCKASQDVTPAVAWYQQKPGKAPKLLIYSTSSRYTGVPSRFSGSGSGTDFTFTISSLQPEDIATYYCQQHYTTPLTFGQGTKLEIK
86800
